Test system: MX-1 breast xenograft, nude mice, tumor weight T/C
Protocol Notes: NCI In Vivo Anticancer Drug Screen. Data for tumor model Human Mammary Carcinoma MX-1 Xenograft (intrarenal inoculation) in NU/NU Swiss (nude) mice
Applied Conditions: endpoint: mean tumor weight change; dose: 300.0 mg/kg/injection; schedule: Q04DX003 (sc); vehicle: saline with Tween-80; higher = larger tumour
Results filed as inconclusive are left out.
Reported T/C values follow for various molecules

In [3]: df
Out[3]:
                                   molecule     readout_value
0     CNC(=O)n1c(N)nc(-c2ccccc2)c1-c1ccccc1   62 % of control
1  Cc1cc(=O)n2c3c(c4c(cc13)c(CN(C)C)cc(=O)n4C)OC2   80 % of control
2  O=C[C@@H](CO)O[C@H](C=O)n1cnc2c(=O)[nH]cnc21   47 % of control
3               C[Si](C)(CCl)N[Si](C)(C)CCl   50 % of control
4  CCCCCCCCCCCCCCCCCCCCCC(=O)Nc1ccn(C2OC(CO)C(O)C2O)c(=O)n1 (stereo unspecified)  123 % of control

Problem: What T/C value was documented for this molecule, ClC(Cl)(Cl)C1=NCc2nnn(Cc3ccccc3)c2N1 ?
Result: 92 % of control
